biological target: Tumour suppressor protein p53/Mdm4 (Homo sapiens, UniProt O15151+P04637); experiment: Inhibition of human DMX-p53 protein-protein interaction […]
Sequence (P04637 whole entry): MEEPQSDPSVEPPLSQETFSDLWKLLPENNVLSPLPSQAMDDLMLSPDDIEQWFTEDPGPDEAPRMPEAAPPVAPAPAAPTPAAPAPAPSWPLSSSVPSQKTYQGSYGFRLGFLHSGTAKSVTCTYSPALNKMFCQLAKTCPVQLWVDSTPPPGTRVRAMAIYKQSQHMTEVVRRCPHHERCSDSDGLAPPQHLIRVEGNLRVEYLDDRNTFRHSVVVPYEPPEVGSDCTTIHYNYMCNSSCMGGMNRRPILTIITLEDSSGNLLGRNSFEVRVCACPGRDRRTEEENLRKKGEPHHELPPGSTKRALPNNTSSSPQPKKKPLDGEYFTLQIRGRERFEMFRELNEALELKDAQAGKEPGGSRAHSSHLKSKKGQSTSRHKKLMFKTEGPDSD
Sequence (O15151 whole entry): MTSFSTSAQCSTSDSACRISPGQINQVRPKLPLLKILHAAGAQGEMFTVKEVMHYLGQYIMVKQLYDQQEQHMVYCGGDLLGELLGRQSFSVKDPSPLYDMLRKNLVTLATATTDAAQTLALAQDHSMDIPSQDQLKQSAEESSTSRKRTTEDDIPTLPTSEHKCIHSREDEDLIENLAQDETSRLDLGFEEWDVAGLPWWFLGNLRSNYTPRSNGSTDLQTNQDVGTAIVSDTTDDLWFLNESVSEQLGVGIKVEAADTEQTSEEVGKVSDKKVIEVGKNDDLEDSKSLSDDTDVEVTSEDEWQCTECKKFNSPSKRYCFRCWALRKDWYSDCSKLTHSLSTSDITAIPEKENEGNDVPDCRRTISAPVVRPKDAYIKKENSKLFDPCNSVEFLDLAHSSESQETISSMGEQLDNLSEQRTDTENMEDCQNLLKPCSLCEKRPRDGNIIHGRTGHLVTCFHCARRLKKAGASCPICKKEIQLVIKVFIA
OBSERVED PROPERTY: pIC50
Please report pIC50 as the negative decimal logarithm of the molar concentration, giving only the number.

compound=C[C@](O)(c1cccc(F)c1)c1cn(CSc2ccccc2)nn1 observed_property=pIC50 readout_number=8.10

Exercise: GET /values?readout=pIC50&system=Tumour suppressor protein p53/Mdm4 (Homo sapiens, UniProt O15151+P04637)&item= C[C@](O)(c1cccc(F)c1)c1cn(C2O[C@H](CO)[C@@H](O)[C@H](O)[C@H]2O)nn1 (stereo not given in full)
Solution: 9.62

Exercise: Please answer likewise for Cc1cn([C@H]2C[C@H](n3cc([C@]4(O)CC[C@H]5[C@@H]6CCc7cc(O)ccc7[C@H]6CC[C@@]54C)nn3)[C@@H](CO)O2)c(=O)[nH]c1=O
Solution: 7.91

Data origin: ChEMBL document CHEMBL5230108
